Tested on: human Factor 11 mRNA
Experiment: Dose-dependent inhibition of human Factor 11 in HepG2 cells, electroporation 123.46-10,000 nM (Example 31)
Type: cell-based
Conditions: electroporation, 10,000.0 nM, approx. 16 hours, relative to untreated control cells
Strand notation (5' to 3'): a small letter for the sugar, then the base; units joined by * are phosphorothioate-linked, units joined directly phosphodiester-linked; [ ] holds rarer units or linkages, { } end groups; capitals alone tell only the bases. e = 2'-O-(2-methoxyethyl) (MOE); [5mC] = 5-methylcytosine; d = 2'-deoxy (DNA)
readoutLabel: Percent inhibition of Factor 11 mRNA at 10,000.0 nM (%)
Number only, in %; omit the unit.

Using the record for 416857 (antisense e[5mC]*eG*eG*e[5mC]*eA*dT*dT*dG*dG*dT*dG*d[5mC]*dA*d[5mC]*dA*eG*eT*eT*eT*e[5mC]) [compound 416857] , report its Percent inhibition of Factor 11 mRNA at 10,000.0 nM.
72

Try 416849 (antisense eG*e[5mC]*eA*e[5mC]*eA*dG*dT*dT*dT*d[5mC]*dT*dG*dG*d[5mC]*dA*eG*eG*e[5mC]*e[5mC]*eT) [compound 416849] next.
68

Try 445532 (antisense e[5mC]*eG*eG*e[5mC]*eA*dT*dT*dG*dG*dT*dG*d[5mC]*dA*e[5mC]*eA*eG*eT*eT) [compound 445532] next.
70

Try 416850 (antisense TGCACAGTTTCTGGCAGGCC; 5-10-5 gapmer, further chemistry not given here) [compound 416850] next.
73

Try 416860 (antisense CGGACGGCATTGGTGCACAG; 5-10-5 gapmer, further chemistry not given here) [compound 416860] next.
40

Try 445503 (antisense eG*e[5mC]*eA*eT*eT*eG*dG*dT*dG*d[5mC]*dA*d[5mC]*dA*dG*eT*eT*eT*e[5mC]*eT*eG) [compound 445503] next.
60
